# measured on: DN-IV quality control recombinant protein (produced by the company) (dengue virus)
# assay comment: BLI, antibody on AMC sensor
recorded metric: Kd (nM)
Write down the numeric answer in nM and omit the unit.

Query: Kd; subject: Mutation 1-6 (antibody, V domains shown) VH: EVQLQQPGPELVKPGASVKMSCKASGYTFTSTVIHWVRQKPGQGLEWIGYMNPYNDGIKYNEKFIGKAILTSDKSSSTAYMQLSSLTSEDSAVYYCTKEGLFYVMDYWGQGTSVTVSS VL: QIVLTQSPAIMSASPGEKVTMTCSATSSISYMHWYQQKSGTSPKRWIYDTSKLASGVPVRFSGSGSGTSYSLTISSMEAEDAATYFCQYWRSDLPTFGAGTKLELKR
0.499

# query: Kd of entry Mutation 1-42 (antibody, V domains shown) VH: EVQLQQPGPELVKPGASVKMSCKASGYTFTSTVIHWVRQKPGQGLEWIGYMNPYNDGIKYNEKFIGKAILTSDKSSSTAYMQLSSLTSEDSAVYYCTREGLFYVFDYWGQGTSVTVSS VL: QIVLTQSPAIMSASPGEKVTMTCSATSSLSYMHWYQQKSGTSPKRWIYDTSKLASGVPVRFSGSGSGTSYSLTISSMEAEDAATYFCQQWRSDLPTFGAGTKLELKR
0.532

Recorded Kd for Mutation 1-16 (antibody, V domains shown) VH: EVQLQQPGPELVKPGASVKMSCKASGYTFTSSVIHWVRQKPGQGLEWIGYMNPYNDGLKYNEKFIGKAILTSDKSSSTAYMQLSSLTSEDSAVYYCTREGLFYVMDYWGQGTSVTVSS VL: QIVLTQSPAIMSASPGEKVTMTCSATSSLSYMHWYQQKSGTSPKRWIYDTSKLASGVPVRFSGSGSGTSYSLTISSMEAEDAATYFCQWWRSDLPTFGAGTKLELKR , please?
3.38

Requested field: Kd. Item: Mutation 1-7 (antibody, V domains shown) VH: EVQLQQPGPELVKPGASVKMSCKASGYTFTSSVIHWVRQKPGQGLEWIGYMNPYNDGLKYNEKFIGKAILTSDKSSSTAYMQLSSLTSEDSAVYYCTKEGLFYVFDYWGQGTSVTVSS VL: QIVLTQSPAIMSASPGEKVTMTCSATSSLSYMHWYQQKSGTSPKRWIYDSSKLASGVPVRFSGSGSGTSYSLTISSMEAEDAATYFCQWWRSDLPTFGAGTKLELKR
0.652

Record request: Kd value, item Mutation 1-52 (antibody, V domains shown) VH: EVQLQQPGPELVKPGASVKMSCKASGYTFTSSVIHWVRQKPGQGLEWIGYMNPYNDGLKYNEKFIGKAILTSDKSSSTAYMQLSSLTSEDSAVYYCTKEGLFYVFDYWGQGTSVTVSS VL: QIVLTQSPAIMSASPGEKVTMTCSATSSLSYMHWYQQKSGTSPKRWIYDSSKLASGVPVRFSGSGSGTSYSLTISSMEAEDAATYFCQQWRSDLPTFGAGTKLELKR
3.02
